- Recorded conditions: in acetonitrile, 313.15 K
Reported property: solubility (mole fraction)
No unit in the answer, please; the number alone is enough.

get_value(item= CC(C)(C)[C@H](O)[C@H](Cc1ccc(Cl)cc1)n1cncn1 (racemic) , readout=solubility (mole fraction)) returns 0.00916

----------
- Recorded conditions: in acetonitrile, 283.15 K
Reported property: solubility (mole fraction)
No unit in the answer, please; the number alone is enough.

get_value(item= CC(C)(C)[C@H](O)[C@H](Cc1ccc(Cl)cc1)n1cncn1 (racemic) , readout=solubility (mole fraction)) returns 0.00295

----------
- Recorded conditions: in toluene, 315.65 K
Reported property: solubility (mole fraction)
No unit in the answer, please; the number alone is enough.

get_value(item= CC(C)(C)[C@H](O)[C@H](Cc1ccc(Cl)cc1)n1cncn1 (racemic) , readout=solubility (mole fraction)) returns 0.0597

----------
- Recorded conditions: in ethyl acetate, 288.15 K
Reported property: solubility (mole fraction)
No unit in the answer, please; the number alone is enough.

get_value(item= CC(C)(C)[C@H](O)[C@H](Cc1ccc(Cl)cc1)n1cncn1 (racemic) , readout=solubility (mole fraction)) returns 0.0133

----------
- Recorded conditions: in isopropanol, 315.65 K
Reported property: solubility (mole fraction)

get_value(item= CC(C)(C)[C@H](O)[C@H](Cc1ccc(Cl)cc1)n1cncn1 (racemic) , readout=solubility (mole fraction)) returns 0.0225

----------
- Recorded conditions: in ethanol, 298.15 K
Reported property: solubility (mole fraction)
No unit in the answer, please; the number alone is enough.

get_value(item= CC(C)(C)[C@H](O)[C@H](Cc1ccc(Cl)cc1)n1cncn1 (racemic) , readout=solubility (mole fraction)) returns 0.0149

----------
- Recorded conditions: in n-butanol, 293.15 K
Reported property: solubility (mole fraction)
No unit in the answer, please; the number alone is enough.

get_value(item= CC(C)(C)[C@H](O)[C@H](Cc1ccc(Cl)cc1)n1cncn1 (racemic) , readout=solubility (mole fraction)) returns 0.0198

----------
- Recorded conditions: in n-propanol, 293.15 K
Reported property: solubility (mole fraction)
No unit in the answer, please; the number alone is enough.

get_value(item= CC(C)(C)[C@H](O)[C@H](Cc1ccc(Cl)cc1)n1cncn1 (racemic) , readout=solubility (mole fraction)) returns 0.0172

----------
- Recorded conditions: in toluene, 290.65 K
Reported property: solubility (mole fraction)
No unit in the answer, please; the number alone is enough.

get_value(item= CC(C)(C)[C@H](O)[C@H](Cc1ccc(Cl)cc1)n1cncn1 (racemic) , readout=solubility (mole fraction)) returns 0.0473

----------
- Recorded conditions: in acetone, 293.15 K
Reported property: solubility (mole fraction)
No unit in the answer, please; the number alone is enough.

get_value(item= CC(C)(C)[C@H](O)[C@H](Cc1ccc(Cl)cc1)n1cncn1 (racemic) , readout=solubility (mole fraction)) returns 0.0209

----------
- Recorded conditions: in ethanol, 310.65 K
Reported property: solubility (mole fraction)
No unit in the answer, please; the number alone is enough.

get_value(item= CC(C)(C)[C@H](O)[C@H](Cc1ccc(Cl)cc1)n1cncn1 (racemic) , readout=solubility (mole fraction)) returns 0.0214

----------
- Recorded conditions: in toluene, 288.15 K
Reported property: solubility (mole fraction)

get_value(item= CC(C)(C)[C@H](O)[C@H](Cc1ccc(Cl)cc1)n1cncn1 (racemic) , readout=solubility (mole fraction)) returns 0.0462
